# Test system: L1210 leukemia ip in BDF1 mice, survival T/C
# test-details: NCI In Vivo Anticancer Drug Screen. Data for tumor model L1210 Leukemia (intraperitoneal) in B6D2F1 (BDF1) mice
# details: endpoint: mean survival time; dose: 400.0 mg/kg/injection; schedule: Q04DX002 (ip); vehicle: Klucel (hydroxypropylcellulose) (HPC); higher = longer survival
Inconclusive results and toxic doses are left out.
T/C listing for selected compounds.

Check out these entries, answers already filled in.
{"compound": "O=C1CSc2ccccc2N1", "T/C": "110 % of control"}
{"compound": "N#CSCC1OCC(C(O)C(O)C2COC(CSC#N)O2)O1 (stereo unspecified)", "T/C": "95 % of control"}
{"compound": "Cc1cc(Cl)ccc1OC(=O)Nc1ccccc1Cl", "T/C": "106 % of control"}
{"compound": "C=CCc1ccc(OC(=O)Nc2ccccc2Cl)c(OC)c1", "T/C": "92 % of control"}
{"compound": "O=C(OCc1ccccc1CN1CCOCC1)c1ccc(Cl)cc1", "T/C": "100 % of control"}
{"compound": "COC1OC(COS(C)(=O)=O)C(OS(C)(=O)=O)C(OC(=O)c2ccccc2)C1OC(=O)c1ccccc1 (stereo unspecified)", "T/C": "101 % of control"}

Ask: Lab note: need T/C with L1210 leukemia ip in BDF1 mice, survival T/C for entry O=C1OC(c2ccccc2)=N/C1=C\c1ccc([N+](=O)[O-])cc1 , please look it up.
Result: 86 % of control

Ask: // next record CCOc1ccc(N=Nc2ccc(N)cc2N)cc1
Result: 96 % of control

Ask: // next record Cc1ccc(OCCO)cc1C
Result: 92 % of control

Ask: // next record C/C(=N\N=C(/C)c1c(C)c([N+](=O)[O-])c(C(C)(C)C)c([N+](=O)[O-])c1C)c1c(C)c([N+](=O)[O-])c(C(C)(C)C)c([N+](=O)[O-])c1C
Result: 97 % of control

Ask: // next record COC(=O)N/N=C/c1ccc(C)cc1
Result: 94 % of control

* * *

T/C listing for selected molecules.
# System: L1210 leukemia ip in BDF1 mice, survival T/C
# test-details: NCI In Vivo Anticancer Drug Screen. Data for tumor model L1210 Leukemia (intraperitoneal) in B6D2F1 (BDF1) mice
# details: endpoint: mean survival time; dose: 150.0 mg/kg/injection; schedule: Q01DX009 (ip); vehicle: Klucel (hydroxypropylcellulose) (HPC); higher = longer survival
Toxic doses and inconclusive results are not listed.

Ask: Endpoint output: T/C of O=C(c1ccccc1)c1cc(Cl)ccc1O . Value?
Result: 98 % of control

Ask: // next record CN=NNc1ccc(C)cc1
Result: 113 % of control

Ask: // next record O=C(O)CCc1nc2ccccc2[nH]1
Result: 100 % of control

* * *

# Tested on: L1210 leukemia ip in BDF1 mice, survival T/C
# test-details: NCI In Vivo Anticancer Drug Screen. Data for tumor model L1210 Leukemia (intraperitoneal) in B6D2F1 (BDF1) mice
# details: endpoint: mean survival time; dose: 75.0 mg/kg/injection; schedule: Q01DX001 (ip); vehicle: other; higher = longer survival
Inconclusive results and toxic doses are left out.
T/C listing for selected molecules.

{"molecule": "COc1ccc(C(=O)CC2CCCC(CC(=O)c3ccc(OC)cc3)N2C)cc1 (centres undefined)", "T/C": "98 % of control"}
{"molecule": "O=C(O)C(Cl)(c1ccccc1)c1ccccc1", "T/C": "94 % of control"}
{"molecule": "CCCCC(CCCC)NCCOC(=O)c1ccc(N)cc1", "T/C": "102 % of control"}
{"molecule": "O=C1c2cccc3cccc(c23)C1(Br)Br", "T/C": "101 % of control"}
{"molecule": "CN1CCC(=O)c2ccccc21", "T/C": "97 % of control"}
{"molecule": "CCCC(C)CCCNCCOC(=O)c1cccc(N)c1 (centres undefined)", "T/C": "97 % of control"}
{"molecule": "O=S(=O)(O)C1(C(Cl)Cl)CCCCC1 (tested in a mixture with another compound)", "T/C": "104 % of control"}
{"molecule": "CC(C)([CH2][Sn]([CH2]C(C)(C)c1ccccc1)[CH2]C(C)(C)c1ccccc1)c1ccccc1.CC(C)([CH2][Sn]([CH2]C(C)(C)c1ccccc1)[CH2]C(C)(C)c1ccccc1)c1ccccc1", "T/C": "101 % of control"}

Next up:
Ask: Endpoint output: T/C of O=C(CCl)c1ccc(O)c(O)c1 . Value?
Result: 109 % of control

* * *

# Tested on: L1210 leukemia ip in BDF1 mice, survival T/C
# test-details: NCI In Vivo Anticancer Drug Screen. Data for tumor model L1210 Leukemia (intraperitoneal) in B6D2F1 (BDF1) mice
# details: endpoint: mean survival time; dose: 200.0 mg/kg/injection; schedule: Q01DX009 (ip); vehicle: Klucel (hydroxypropylcellulose) (HPC); higher = longer survival
Toxic doses and inconclusive results are not listed.
observable: T/C

Check out these entries, answers already filled in.
{"compound": "c1cc(N2CCOCC2)ccc1Cc1ccc(N2CCOCC2)cc1", "T/C": "109 % of control"}
{"compound": "CC(=O)Nc1cc(Cl)c(Cl)cc1N", "T/C": "98 % of control"}
{"compound": "CC(C)(C)N1CC(C(=O)c2ccccc2)C1c1ccccc1 (stereo unspecified)", "T/C": "101 % of control"}
{"compound": "COC(=O)c1ccc(C(=O)OC)c(NC(=O)CC(=O)c2ccc([N+](=O)[O-])cc2)c1", "T/C": "91 % of control"}
{"compound": "Cc1ccc([N+](=O)[O-])cc1NC(=O)NCc1cccnc1", "T/C": "87 % of control"}
{"compound": "CC(C)(C)C(=O)OCn1cnc2c(=N)n(O)cnc21", "T/C": "101 % of control"}
{"compound": "Cc1n(CCBr)c([N+](=O)[O-])c[n+]1C1N=C(c2ccccc2Cl)c2cc(Cl)ccc2NC1=O (stereo unspecified)", "T/C": "89 % of control"}
{"compound": "O=C(COc1ccccc1Cl)NCc1ccc(Cl)cc1", "T/C": "88 % of control"}
{"compound": "COc1ncnc2nc[nH]c12", "T/C": "102 % of control"}
{"compound": "Cc1cc(OC(=O)Nc2cc(C(F)(F)F)ccc2Cl)cc(C)c1Cl", "T/C": "104 % of control"}

Ask: Lab note: need T/C with L1210 leukemia ip in BDF1 mice, survival T/C for entry O=C(O)c1c(-c2ccccc2)[nH]c2cc(Cl)ccc2c1=O , please look it up.
Result: 106 % of control

* * *

# Test system: L1210 leukemia ip in BDF1 mice, survival T/C
# test-details: NCI In Vivo Anticancer Drug Screen. Data for tumor model L1210 Leukemia (intraperitoneal) in B6D2F1 (BDF1) mice
# details: endpoint: mean survival time; dose: 400.0 mg/kg/injection; schedule: Q04DX003 (ip); vehicle: saline with Tween-80; higher = longer survival
Inconclusive results and toxic doses are left out.
T/C listing for selected compounds.

Check out these entries, answers already filled in.
{"compound": "C[Si](C)(C)CCc1ccccc1", "target-under-test": "L1210 leukemia ip in BDF1 mice, survival T/C", "T/C": "93 % of control"}
{"compound": "CCCNC(=O)Nc1ccc(C)cc1C", "target-under-test": "L1210 leukemia ip in BDF1 mice, survival T/C", "T/C": "101 % of control"}

Ask: Endpoint output: T/C of OCC1OCCO1 . Value?
Result: 100 % of control

* * *

# Test system: L1210 leukemia ip in BDF1 mice, survival T/C
# test-details: NCI In Vivo Anticancer Drug Screen. Data for tumor model L1210 Leukemia (intraperitoneal) in B6D2F1 (BDF1) mice
# details: endpoint: mean survival time; dose: 50.0 mg/kg/injection; schedule: Q01DX009 (ip); vehicle: saline; higher = longer survival
Inconclusive results and toxic doses are left out.
T/C listing for selected molecules.

Check out these entries, answers already filled in.
{"molecule": "CCCCCCCCCCCCCCCCCCN(c1ccc(C(=O)OCC)cc1)S(=O)(=O)c1ccc(C)cc1", "target-under-test": "L1210 leukemia ip in BDF1 mice, survival T/C", "result": "93 % of control"}
{"molecule": "COc1cc2ccncc2cc1OCc1ccccc1", "target-under-test": "L1210 leukemia ip in BDF1 mice, survival T/C", "result": "96 % of control"}
{"molecule": "CC1(C)OCC(=NNC(N)=O)CO1", "target-under-test": "L1210 leukemia ip in BDF1 mice, survival T/C", "result": "96 % of control"}
{"molecule": "CC(=O)NCCCCCC(=O)O", "target-under-test": "L1210 leukemia ip in BDF1 mice, survival T/C", "result": "105 % of control"}
{"molecule": "CCN(CC)CCOc1cccc(Oc2ccccc2)c1", "target-under-test": "L1210 leukemia ip in BDF1 mice, survival T/C", "result": "96 % of control"}
{"molecule": "C[Si](C)(C)O[Si](C)(C)c1ccccc1", "target-under-test": "L1210 leukemia ip in BDF1 mice, survival T/C", "result": "102 % of control"}
{"molecule": "CN(C)CCC(c1ccccc1)c1cc(Cl)ccn1 (centres undefined)", "target-under-test": "L1210 leukemia ip in BDF1 mice, survival T/C", "result": "97 % of control"}
{"molecule": "CCOC(=O)c1cnc2ccccn2c1=O", "target-under-test": "L1210 leukemia ip in BDF1 mice, survival T/C", "result": "96 % of control"}

Ask: Endpoint output: T/C of C1=C(N2CCOCC2)CCC(N2CCOCC2)=C1 . Value?
Result: 108 % of control

Ask: // next record Clc1ccccc1OCCNC1CC1
Result: 103 % of control

Ask: // next record CC(C)(CNC1=NCCO1)NC1=NCCO1
Result: 105 % of control

Ask: // next record O=C1CCC2(CCC(=O)O2)O1
Result: 100 % of control

Ask: // next record CCN(CC)CCOC(=O)CSC1C2CC3C(C2)C31 (centres undefined)
Result: 94 % of control

Ask: // next record CSC(=S)NC#N
Result: 93 % of control
